- targetEntity: Phospho-EGFR (Tyr1068) in H1975 C797S cells (Homo sapiens, UniProt P00533, C797S/L858R/T790M)
- Construct: endogenous in cells; host or cells: H1975 C797S (CRISPR-edited in house from ATCC CRL-5908)
- Sequence (P00533 25-1210 T790M/C797S/L858R): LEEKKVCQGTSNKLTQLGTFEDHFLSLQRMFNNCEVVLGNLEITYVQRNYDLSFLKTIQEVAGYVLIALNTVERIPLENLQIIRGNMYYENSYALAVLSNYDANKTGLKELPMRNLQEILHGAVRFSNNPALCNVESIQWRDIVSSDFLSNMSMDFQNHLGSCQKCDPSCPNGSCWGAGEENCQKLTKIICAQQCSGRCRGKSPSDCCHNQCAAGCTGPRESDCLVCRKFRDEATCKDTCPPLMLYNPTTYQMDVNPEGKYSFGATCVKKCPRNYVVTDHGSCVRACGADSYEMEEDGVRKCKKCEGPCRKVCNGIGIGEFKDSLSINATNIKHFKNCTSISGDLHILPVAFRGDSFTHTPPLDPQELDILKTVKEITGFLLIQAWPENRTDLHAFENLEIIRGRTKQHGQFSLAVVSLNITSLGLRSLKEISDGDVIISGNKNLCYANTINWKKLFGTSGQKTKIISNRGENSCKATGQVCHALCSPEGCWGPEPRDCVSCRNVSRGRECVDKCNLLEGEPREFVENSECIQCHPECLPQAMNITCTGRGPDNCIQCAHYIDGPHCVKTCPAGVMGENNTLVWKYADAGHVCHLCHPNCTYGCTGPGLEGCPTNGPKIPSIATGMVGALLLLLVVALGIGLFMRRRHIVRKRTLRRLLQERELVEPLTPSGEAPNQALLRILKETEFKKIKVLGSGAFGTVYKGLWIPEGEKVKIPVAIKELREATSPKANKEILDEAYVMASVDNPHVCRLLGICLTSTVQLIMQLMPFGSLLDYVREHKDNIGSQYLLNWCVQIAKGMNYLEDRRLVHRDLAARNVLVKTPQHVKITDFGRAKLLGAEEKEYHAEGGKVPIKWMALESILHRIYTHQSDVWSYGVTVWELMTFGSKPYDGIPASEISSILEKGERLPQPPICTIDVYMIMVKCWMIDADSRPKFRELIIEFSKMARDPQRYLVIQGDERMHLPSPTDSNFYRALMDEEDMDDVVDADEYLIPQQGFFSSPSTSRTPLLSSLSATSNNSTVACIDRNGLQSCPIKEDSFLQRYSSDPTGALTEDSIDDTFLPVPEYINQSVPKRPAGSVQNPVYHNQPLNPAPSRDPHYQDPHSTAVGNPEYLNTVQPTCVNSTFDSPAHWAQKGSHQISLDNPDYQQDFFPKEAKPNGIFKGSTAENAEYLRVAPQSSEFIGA
- measurementDescription: HTRF pEGFR/total EGFR assay in H1975 C797S cells
- Type: cell-based
- measurementSetup: H1975 C797S cells (CRISPR), compound 3 hours, ratio pEGFR/total EGFR
metric: IC50

Would you please look over these solved cases?
C#Cc1cc(Nc2ccccc2)nc2nc(Nc3ccc(N(C)CCN(C)C)cc3)ncc12	> 3 µM
C#Cc1cc(NC(=O)NC2CCCC2)nc2nc(Nc3ccc(N(C)C(=O)CN4CCC4)cc3)ncc12	> 3 µM
C#Cc1cc(N2C(=O)N(C)CC23CCCC3)nc2nc(Nc3ccc(N4CCN(C5COC5)CC4)cc3)ncc12	1 to 3 µM

GET /value?item= `C#Cc1cc(NC(=O)NCc2cnco2)nc2nc(Nc3ccc(N4CCN(C)CC4)cc3)ncc12` &field=IC50 returns 1 to 3 µM

GET /value?item= `C#Cc1cc(NC(=O)NC2CCCC2)nc2nc(Nc3ccc(S(C)(=O)=O)cc3)ncc12` &field=IC50 returns 1 to 3 µM

GET /value?item= `C#Cc1cc(N(C)C)nc2nc(Nc3ccc(N(C)CCN(C)C)cc3)ncc12` &field=IC50 returns > 3 µM

GET /value?item= `C#Cc1cc(N2C(=O)NC[C@H]2C(C)C)nc2nc(Nc3ccc(N4CCN(C)CC4)cc3)ncc12` &field=IC50 returns 1 to 3 µM

GET /value?item= `C#Cc1cc(OC2CCCCC2)nc2nc(Nc3ccc(N4CCN(C)CC4)cc3)ncc12` &field=IC50 returns > 3 µM

All figures here come from patent US20260176265A1.
